Tested on: Mast/stem cell growth factor receptor Kit (Homo sapiens), P10721 [T670I]
Sequence (P10721 whole entry T670I): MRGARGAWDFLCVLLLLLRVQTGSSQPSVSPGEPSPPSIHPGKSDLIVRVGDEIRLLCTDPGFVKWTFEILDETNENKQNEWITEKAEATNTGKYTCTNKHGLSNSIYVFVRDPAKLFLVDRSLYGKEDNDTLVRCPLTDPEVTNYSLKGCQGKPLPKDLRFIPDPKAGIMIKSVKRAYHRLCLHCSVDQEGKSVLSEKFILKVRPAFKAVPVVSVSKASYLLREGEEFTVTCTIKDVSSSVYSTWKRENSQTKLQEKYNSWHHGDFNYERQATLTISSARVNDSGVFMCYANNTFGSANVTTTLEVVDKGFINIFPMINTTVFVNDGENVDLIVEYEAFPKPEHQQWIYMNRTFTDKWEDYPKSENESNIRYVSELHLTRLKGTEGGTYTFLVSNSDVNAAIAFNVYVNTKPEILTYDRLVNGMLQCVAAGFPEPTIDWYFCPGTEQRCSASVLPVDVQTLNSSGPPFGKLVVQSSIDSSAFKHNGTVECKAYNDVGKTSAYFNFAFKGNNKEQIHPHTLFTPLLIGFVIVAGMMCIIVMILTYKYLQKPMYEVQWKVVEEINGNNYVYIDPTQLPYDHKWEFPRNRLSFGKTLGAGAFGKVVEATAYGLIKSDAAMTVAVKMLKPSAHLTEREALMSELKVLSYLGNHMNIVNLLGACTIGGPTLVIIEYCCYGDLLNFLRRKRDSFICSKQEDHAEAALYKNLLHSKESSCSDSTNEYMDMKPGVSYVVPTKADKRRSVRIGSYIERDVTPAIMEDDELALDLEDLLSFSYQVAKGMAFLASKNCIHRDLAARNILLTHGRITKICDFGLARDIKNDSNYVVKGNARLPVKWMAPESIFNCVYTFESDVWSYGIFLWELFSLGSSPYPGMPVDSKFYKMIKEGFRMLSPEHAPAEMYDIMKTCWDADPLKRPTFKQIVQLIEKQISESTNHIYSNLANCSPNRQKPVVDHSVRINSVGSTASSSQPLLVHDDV
stated_conditions: at 1 µM
Hi, to clarify the labels: Fulfilled covers inhibition from 4% upward, Not fulfilled covers anything below 4%.

• CS(=O)(=O)CCNCc1ccc(-c2ccc3ncnc(Nc4ccc(OCc5ccccc5)c(C(F)(F)F)c4)c3c2)o1 = Not fulfilled
• CN1CCC(n2cnc(-c3ccc(F)cc3)c2-c2ccnc(N)n2)CC1 = Not fulfilled
• NC(=O)c1sc(-n2cnc3ccc(C(F)(F)F)cc32)cc1OCc1ccccc1Br = Not fulfilled
• COc1ccc(-c2cc(-c3c[nH]nc3-c3ccccn3)ccn2)cc1 = Fulfilled
• COc1cc(Nc2nccc(Nc3ccc4c(C)n[nH]c4c3)n2)cc(OC)c1OC = Fulfilled
• CCn1c(-c2nonc2N)nc2ccccc21 = Not fulfilled
• FC(F)(F)c1cccc(-c2nn3ncccc3c2-c2ccnc(Nc3ccc4c(c3)OCCO4)n2)c1 = Not fulfilled
• COC(=O)Nc1nc2ccc(Oc3ccc(NC(=O)Nc4cccc(Cl)c4)cc3)cc2[nH]1 = Fulfilled
• Nc1nc(-c2cccc(Cl)c2)c(-c2ccc3ncccc3n2)s1 = Fulfilled

* * *

tested_on: Calcium/calmodulin-dependent protein kinase type II subunit delta (Homo sapiens) (UniProt Q13557)
Sequence (Q13557 whole entry): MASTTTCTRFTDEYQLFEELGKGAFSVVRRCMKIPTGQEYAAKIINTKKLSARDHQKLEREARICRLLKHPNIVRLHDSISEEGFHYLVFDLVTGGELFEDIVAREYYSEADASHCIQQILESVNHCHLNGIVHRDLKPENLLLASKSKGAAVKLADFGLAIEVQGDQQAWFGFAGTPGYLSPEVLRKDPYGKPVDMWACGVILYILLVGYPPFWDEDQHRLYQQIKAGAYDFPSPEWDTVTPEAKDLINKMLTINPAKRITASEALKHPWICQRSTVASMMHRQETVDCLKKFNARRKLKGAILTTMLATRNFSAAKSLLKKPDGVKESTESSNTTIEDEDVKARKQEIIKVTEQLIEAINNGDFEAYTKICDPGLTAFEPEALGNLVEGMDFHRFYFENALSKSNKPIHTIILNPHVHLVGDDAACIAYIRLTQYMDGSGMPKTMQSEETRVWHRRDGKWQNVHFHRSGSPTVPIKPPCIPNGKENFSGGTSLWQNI
stated_conditions: at 0.1 µM
inhibition overview
endpoint_label: inhibition (%)

- CCn1c(-c2nonc2N)nc2ccccc21: 4.24
- CCCN(CCS(C)(=O)=O)Cc1ccc(-c2ccc3ncnc(Nc4ccc(OCc5cccc(F)c5)c(Cl)c4)c3c2)o1: 1.58
- CC(C)(CO)CNC(=O)c1ccc2c(c1)/C(=N/Nc1ccc(S(N)(=O)=O)cc1)C(=O)N2: 0.61
- Cc1cccc(Nc2ncc(-c3ccccc3)o2)c1: 4.42
- Cc1ccc2c(-c3ccnc(Nc4ccccc4)n3)c(-c3ccc(F)cc3)nn2n1: 3.9
- c1ccc(-c2nc3n(c2-c2ccc4c(c2)OCO4)CCC3)nc1: 1.63
- COc1ccc(-c2cc3c(N)ncnc3o2)cc1: -0.8
- COc1cc2c(cc1Nc1nc(Nc3ccsc3C(N)=O)c3cc[nH]c3n1)N(C(=O)CN(C)C)CCC2(C)C: 7.45
- CC1=C(C(=O)Nc2cc(Cl)c3[nH]ncc3c2)C(c2ccc(C(F)(F)F)cc2)CC(=O)N1 (stereo unspecified): 1.82
- N#Cc1c(NC(=O)c2ccc(F)cc2)sc2c1CCCC2: 0.08
- CNC(=O)c1cc(-c2ccc(F)cc2)cc(-c2ccc(S(=O)(=O)N3CCCC3)cc2)c1N: 3.1
- CS(=O)(=O)CCNCc1ccc(-c2ccc3ncnc(Nc4ccc(OCc5ccccc5)c(C(F)(F)F)c4)c3c2)o1: 1.83
- O=C(Nc1n[nH]c2cc(-c3ccc(F)cc3)ccc12)C1CC1: 2.59
- CCN(CC)S(=O)(=O)c1ccc(OC)c(Nc2ncc(-c3ccccc3)o2)c1: 2.08
- CS(=O)(=O)CCNCc1coc(-c2ccc3ncnc(Nc4ccc(OCc5ccccc5)cc4)c3c2)c1: 2.95
- CN1CCC(n2cnc(-c3ccc(F)cc3)c2-c2ccnc(N)n2)CC1: -0.04
- COc1ccc2c(-c3ccnc(Nc4cccc(OC(F)(F)F)c4)n3)cnn2n1: 2.75
- COc1cc2ncn(-c3cc(OCc4ccccc4C(F)(F)F)c(C(=O)N(C)C)s3)c2cc1OC: -1.72
- COc1cc(/C=N/Nc2ncnc3[nH]ncc23)ccc1O: 2.57
- CCn1c(-c2nonc2N)nc2c(C#CC(C)(C)O)nc(OC[C@H](N)c3ccccc3)cc21: 4.52
- COc1ccc(CNC(=O)c2ccc(-c3cc(-c4nnc(C)o4)ccc3C)cc2)cc1: 0.75
